target_of_assay: T1, human GIP receptor (human) (UniProt P48546)
T1 sequence (looked up): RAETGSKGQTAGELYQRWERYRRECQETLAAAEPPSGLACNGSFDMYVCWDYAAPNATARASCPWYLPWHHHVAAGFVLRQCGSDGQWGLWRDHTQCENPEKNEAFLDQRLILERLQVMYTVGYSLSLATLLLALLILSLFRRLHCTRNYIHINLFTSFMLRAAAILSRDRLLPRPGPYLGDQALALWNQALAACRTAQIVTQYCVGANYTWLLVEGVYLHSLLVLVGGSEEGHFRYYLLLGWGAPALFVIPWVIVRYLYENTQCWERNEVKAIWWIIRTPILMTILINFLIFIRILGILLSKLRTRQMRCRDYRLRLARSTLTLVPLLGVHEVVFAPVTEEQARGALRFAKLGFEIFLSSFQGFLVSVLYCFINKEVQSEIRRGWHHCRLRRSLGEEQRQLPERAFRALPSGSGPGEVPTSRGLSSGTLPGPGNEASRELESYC
run_description: cell-based or functional assay
result_type: cAMP Rel EC50 (in the presence of 1% HSA) (nM)
Provide only the numeric value, understood in nM.

## Input I would be grateful if you could share the reported cAMP Rel EC50 (in the presence of 1% HSA) for YXQGTFTSDFSKXLDKKAQXAFIEWLLAGGPSSGEPPPSGE (synthetic construct; SITE 2: note = 2-Aminoisobutyric Acid; SITE 13: note = alpha-methyl-leucine; SITE 17: note = Lysine is chemically modified through conjugation of the epsilon-amino group of the Lysine side chain with (2-[2-(2-Amino-ethoxy)-ethoxy]-acetyl)-(gamma-Glu)-CO-(CH2) 18-CO2H; SITE 20: n) [Example 21] .
## Output 29.1

## Input I would be grateful if you could share the reported cAMP Rel EC50 (in the presence of 1% HSA) for YXQGTFTSDFSKXLDKKAQXAFIEYLLAGGPSSGEPPPSEGX (synthetic construct; SITE 2: note = 2-Aminoisobutyric Acid; SITE 13: note = alpha-methyl-leucine; SITE 17: note = Lysine is chemically modified through conjugation of the epsilon-amino group of the Lysine side chain with (2-[2-(2-Amino-ethoxy)-ethoxy]-acetyl)-(gamma-Glu)-CO-(CH2) 18-CO2H; SITE 20: n) [Example 32] .
## Output 66.1

## Input I would be grateful if you could share the reported cAMP Rel EC50 (in the presence of 1% HSA) for YXQGTXTSDXXIXLDXKAQXEFIEXLIEGGPPSXXPPPSGSE (non-natural residues; lysine acylated AEEA-γGlu-C18 diacid; C-terminal amide; synthetic construct; SITE 2: note = 2-Aminoisobutyric Acid; SITE 6: note = alpha-methyl-2-fluoro-L-phenylalanine; SITE 10: note = 3-(4-Pyridyl)-L-alanine; SITE 11: note = alpha-methyl-L-serine; SITE 13: note = alpha-methyl-leucine; SITE 16: note = L-ornithine; SITE 17: note = Lysine is chemically mo) [Example 1198] .
## Output 0.67

***
## Input I would be grateful if you could share the reported cAMP Rel EC50 (in the presence of 1% HSA) for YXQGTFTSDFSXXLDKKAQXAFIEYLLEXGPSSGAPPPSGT (C-terminal amide; lysine acylated with AEEA-(γ-Glu)2-C18 diacid; synthetic construct; SITE 2: note = 2-Aminoisobutyric Acid; SITE 12: note = L-ornithine; SITE 13: note = alpha-methyl-leucine; SITE 17: note = Lysine is chemically modified through conjugation of the epsilon-amino group of the Lysine side chain with (2-[2-(2-Amino-ethoxy)-ethoxy]-acetyl)-(gamma-Glu)) [Example 278] .
## Output 7.69

## Input I would be grateful if you could share the reported cAMP Rel EC50 (in the presence of 1% HSA) for YXQGTXTSDXSIXLDKKAQXAFIEYLAEGGPSSGEPPPSGSEE (non-natural residues; lysine acylated with C18 diacid; C-terminal amide; synthetic construct; SITE 2: note = 2-Aminoisobutyric Acid; SITE 6: note = alpha-methyl-2-fluoro-L-phenylalanine; SITE 10: note = 3-(4-Pyridyl)-L-alanine; SITE 13: note = alpha-methyl-leucine; SITE 17: note = Lysine is chemically modified through conjugation of the epsilon-amino group of the Lysine) [Example 631] .
## Output 3.92

## Input I would be grateful if you could share the reported cAMP Rel EC50 (in the presence of 1% HSA) for YXQGTFTSDXXQXLDXKAQXQFIEXLIAXGPSSGAPPPSGGGE (not fully specified; non-natural residues; γGlu-C18 diacid on Lys; C-terminal amide; synthetic construct; SITE 2: note = 2-Aminoisobutyric Acid; SITE 10: note = 3-(4-Pyridyl)-L-alanine; SITE 11: note = alpha-methyl-L-serine; SITE 13: note = alpha-methyl-leucine; SITE 16: note = L-ornithine; SITE 17: note = Lysine is chemically modified through conjugation of the epsilon-amino group) [Example 1185] .
## Output 2.31
